Measured values drawn from patent US8378104B2 for this set.

Collected IC50 values appear next to each entry.
Biological target: TAK1-TAB1 fusion protein (Homo sapiens)
Construct: purchased Carna
Sequence (O43318 with tags, fused parts or gaps limits assumed): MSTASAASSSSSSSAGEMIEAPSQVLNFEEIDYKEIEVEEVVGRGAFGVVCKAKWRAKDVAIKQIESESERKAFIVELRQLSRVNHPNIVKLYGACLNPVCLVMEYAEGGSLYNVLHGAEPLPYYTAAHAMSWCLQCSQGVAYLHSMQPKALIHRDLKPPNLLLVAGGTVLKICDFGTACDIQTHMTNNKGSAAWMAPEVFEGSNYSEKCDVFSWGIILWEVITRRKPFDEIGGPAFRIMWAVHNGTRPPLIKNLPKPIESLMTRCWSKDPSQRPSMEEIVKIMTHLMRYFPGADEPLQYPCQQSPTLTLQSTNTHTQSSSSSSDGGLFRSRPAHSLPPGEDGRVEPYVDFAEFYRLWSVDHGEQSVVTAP
Test: TAK1 biochemical assay (AlphaScreen, GST-MAP2K7 substrate)
Settings: TAK1-TAB1 fusion protein, GST-MAP2K7 substrate; read-out: mean TAK1 IC50 (Col. A)
Structures can show the parent of a compound that is named as a salt.
OBSERVABLE: IC50

• Nc1ncc(-c2cnn(C3CCC(O)C3)c2)c2cc(-c3csc4cnccc34)oc12 (stereo not shown) = < 100 nM
• CC1(C)OC[C@@H](Cn2cc(-c3cnc(N)c4oc(-c5csc6cnccc56)cc34)cn2)O1 = 100 to 1000 nM
• CC(=O)N1CCC(n2cc(-c3cnc(N)c4oc(-c5ccc(CC#N)cc5)cc34)cn2)CC1 = 1000 to 10000 nM
• Nc1ncc(-c2cnn(C3CCN(CCF)CC3)c2)c2cc(-c3cccc4cnccc34)oc12 = 100 to 1000 nM
• Nc1ncc(-c2cnn(C3CC(=O)C3)c2)c2cc(-c3csc4cnccc34)oc12 = 100 to 1000 nM
• Nc1ncc(-c2cnn([C@H]3CC[C@H](O)CC3)c2)c2cc(-c3csc4cnc(O)cc34)oc12 = 100 to 1000 nM
• CC(C)CNC(=O)N1CCC(n2cc(-c3cnc(N)c4oc(-c5cccc6cnsc56)cc34)cn2)CC1 = 100 to 1000 nM
• CC1(C)OCC(Cn2cc(-c3cnc(N)c4oc(-c5cccc6cnccc56)cc34)cn2)O1 (stereo not shown) = 1000 to 10000 nM
• CC(=O)N1CCC(n2cc(-c3cnc(N)c4oc(-c5c6ccncc6nn5C)cc34)cn2)CC1 [Example 364, trifluoroacetic Acid Salt] = 100 to 1000 nM
• Nc1ncc(-c2cnn(C3CCN(CCO)CC3)c2)c2cc(-c3cccc4cnccc34)oc12 = 100 to 1000 nM
• Cc1nc(C)c(-c2cnc(N)c3oc(-c4csc5cnccc45)cc23)s1 = 1000 to 10000 nM
• Nc1ncc(-c2cnn([C@H]3CC[C@H](O)CC3)c2)c2c(Cl)c(-c3cccc4cnsc34)oc12 [Example 285, trifluoroacetic Acid Salt] = 100 to 1000 nM
• CNc1nc2cccc(-c3cc4c(-c5cnn(C6CCN(C(C)=O)CC6)c5)cnc(N)c4o3)c2s1 [Example 350, trifluoroacetate] = < 100 nM
• Nc1ncc(-c2cnn(C3CCNCC3)c2)c2cc(-c3ccsc3)oc12 = 1000 to 10000 nM
• CC(=O)N1CCC(n2cc(-c3cnc(N)c4oc(-c5c(C)n[nH]c5C)cc34)cn2)CC1 = 100 to 1000 nM
• Nc1ncc(-c2cn[nH]c2)c2cc(-c3cccc4cnccc34)oc12 = 1000 to 10000 nM
• Cc1n[nH]c(C)c1-c1cnc(N)c2oc(-c3csc4cnccc34)cc12 = 1000 to 10000 nM
• Cc1ccc(-c2cnc(N)c3oc(-c4csc5cnccc45)cc23)s1 = 1000 to 10000 nM
• Nc1cncc(-c2cc3c(-c4cnn(C5CCNCC5)c4)cnc(N)c3o2)c1 = 100 to 1000 nM
• COc1cccc(-c2cc3c(-c4cnn(C5CCN(C(C)=O)CC5)c4)cnc(N)c3o2)c1 = 1000 to 10000 nM
• Nc1ncc(-c2cnn(C3CCN(CC(F)(F)F)CC3)c2)c2cc(-c3cccc4cnccc34)oc12 = 1000 to 10000 nM
• COc1cccc2cc(C=CC(=O)N3CCC(n4cc(-c5cnc(N)c6oc(-c7csc8cnccc78)cc56)cn4)CC3)oc12 = 100 to 1000 nM
• CCN1CCC(n2cc(-c3cnc(N)c4oc(-c5cccc6cnccc56)cc34)cn2)CC1 = 100 to 1000 nM
• COc1cc(-c2cc3c(-c4cnn(C5CCN(C(C)=O)CC5)c4)cnc(N)c3o2)ccc1N = 1000 to 10000 nM
• Nc1ncc(-c2cnn(C3CCNCC3)c2)c2cc(-c3ccc4[nH]ncc4c3)oc12 [Example 18, hydrochloride] = < 100 nM
• Cc1cc(-c2cnc(N)c3oc(-c4csc5cnccc45)cc23)c(C)s1 = 1000 to 10000 nM
• CC(=O)N1CCC(n2cc(-c3cnc(N)c4oc(-c5ccccc5C(N)=O)cc34)cn2)CC1 = 1000 to 10000 nM
• Nc1ncc(-c2cnn([C@@H]3CC[C@@H](O)C3)c2)c2cc(-c3csc4cnccc34)oc12 = < 100 nM
• CC(=O)N1CCC(n2cc(-c3cnc(N)c4oc(-c5cccc6c5oc5ccccc56)cc34)cn2)CC1 = > 10000 nM
• CC(=O)N1CCC(n2cc(-c3cnc(N)c4oc(-c5c(C#N)sc6cnccc56)cc34)cn2)CC1 [Example 264, Trifluoroacetate] = 100 to 1000 nM
• [2H]C([2H])([2H])Nc1ncc(-c2cnn([C@H]3CC[C@H](O)CC3)c2)c2cc(-c3cccc4nnsc34)oc12 = < 100 nM

====

tested on: pJNK in HCT-116 cells; experiment: Phospho-JNK (Thr183/Tyr185) Meso Scale ELISA assay, TNFα-stimulated HCT-116 cells; assay type: cell-based; settings: Homo sapiens, read-out: mean HCT-116 pJNK ELISA IC50 (Col. B)
pIC50: −log10 of the molar value. Structures can show the parent of a compound that is named as a salt.
The entries below come with measured pIC50 values attached.
OBSERVABLE: pIC50

- Nc1ncc(-c2ccoc2)c2cc(-c3csc4cnccc34)oc12 [Example 392, trifluoroacetate]: 5.00 to 6.00
- Nc1ncc(-c2cnn(C3CCC(O)C3)c2)c2cc(-c3csc4cnccc34)oc12 (stereo not drawn): 6.00 to 7.00
- Nc1ncc(-c2cnn([C@H]3CC[C@H](O)CC3)c2)c2cc(-c3csc4cnc(F)cc34)oc12: > 7.00
- CC(=O)N1CCC(n2cc(-c3cnc(N)c4oc(-c5c(F)ccc6nnsc56)cc34)cn2)CC1: 6.00 to 7.00
- CC(=O)N1CCC(n2cc(-c3cnc(N)c4oc(-c5cccc6nn(C)cc56)cc34)cn2)CC1: 5.00 to 6.00
- CN1[C@@H]2CC[C@H]1C[C@H](n1cc(-c3cnc(N)c4oc(-c5csc6cnccc56)cc34)cn1)C2: 6.00 to 7.00
- CC(=O)N1CCC(n2cc(-c3cnc(N)c4oc(-c5csc6cncc(F)c56)cc34)cn2)CC1 [Example 254, trifluoroacetic Acid Salt]: 6.00 to 7.00
- CC(=O)N1CCC(n2cc(-c3cnc(N)c4oc(-c5csc6c(F)nccc56)cc34)cn2)CC1 [Example 256, trifluoroacetic acid salt]: 6.00 to 7.00
- COc1cc(-c2cc3c(-c4cnn(C5CCN(C(C)=O)CC5)c4)cnc(N)c3o2)ccc1O: 6.00 to 7.00
- CC(=O)N1CCC(n2cc(-c3cnc(N)c4oc(-c5ccc6ncn(C)c6c5)cc34)cn2)CC1: 5.00 to 6.00
- CC(=O)N1CCC(n2cc(-c3cnc(N)c4oc(-c5cnc6[nH]ccc6c5)cc34)cn2)CC1: 6.00 to 7.00
- Nc1ncc(-c2cnn(C[C@@H](O)CO)c2)c2cc(-c3csc4cnccc34)oc12: 5.00 to 6.00
- CC(=O)N1CCC(n2cc(-c3cnc(N)c4oc(-c5ccccc5C#N)cc34)cn2)CC1: 5.00 to 6.00
- CC(=O)N1[C@@H]2CC[C@H]1C[C@H](n1cc(-c3cnc(N)c4oc(-c5cccc6cnsc56)cc34)cn1)C2: > 7.00
- Nc1ncc(-c2cnn(C3CCOCC3)c2)c2cc(-c3cccc4cnccc34)oc12: 6.00 to 7.00

====

target: TAK1-TAB1 fusion protein (Homo sapiens, UniProt O43318); construct: purchased Carna; assay: TAK1 biochemical assay (AlphaScreen, GST-MAP2K7 substrate); conditions: TAK1-TAB1 fusion protein, GST-MAP2K7 substrate; read-out: mean TAK1 IC50 (Col. A)
Counter-ions that a name gives are not always drawn.
OBSERVABLE: IC50

* CC(=O)N1CCC(n2cc(-c3cnc(N)c4oc(-c5cccc(OCc6ccccc6Cl)c5)cc34)cn2)CC1 | > 10000 nM
* COc1cccc(COc2cccc(-c3cc4c(-c5cnn(C6CCN(C(C)=O)CC6)c5)cnc(N)c4o3)c2)c1 | > 10000 nM
* Cn1cc(-c2cnc(N)c3oc(-c4cccc5cnccc45)cc23)cn1 | 1000 to 10000 nM
* CC(=O)Nc1cccc(-c2cc3c(-c4cnn(C5CCN(C(C)=O)CC5)c4)cnc(N)c3o2)c1 | 1000 to 10000 nM
* CC(=O)N1CCC(n2cc(-c3cnc(N)c4oc(-c5ccc6nn(C)cc6c5)cc34)cn2)CC1 | > 10000 nM
* CC(C)(C)OC(=O)N1[C@@H]2CC[C@H]1C[C@H](n1cc(-c3cnc(N)c4oc(-c5cccc6cnsc56)cc34)cn1)C2 | 100 to 1000 nM
* CCNc1ncc(-c2cnn(C3CCN(C(C)=O)CC3)c2)c2cc(-c3csc4cnccc34)oc12 [Example 277, trifluoroacetic acid salt] | 1000 to 10000 nM
* CC(=O)N1CCC(n2cc(-c3cnc(N)c4oc(-c5cc(F)cc6cnsc56)cc34)cn2)CC1 [Example 237, diformate salt] | < 100 nM
* CCC(=O)N1CCC(n2cc(-c3cnc(N)c4oc(-c5cccc6ccsc56)cc34)cn2)CC1 | 1000 to 10000 nM
* COc1ccccc1COc1cccc(-c2cc3c(-c4cnn(C5CCN(C(C)=O)CC5)c4)cnc(N)c3o2)c1 | > 10000 nM
* COc1ccccc1NCCC(=O)N1CCC(n2cc(-c3cnc(N)c4oc(-c5cccc6cnsc56)cc34)cn2)CC1 | 100 to 1000 nM
* Nc1ncc(-c2cnn(C3CCNCC3)c2)c2cc(-c3cc(F)cc(F)c3)oc12 | 1000 to 10000 nM
* Cn1ncc2cccc(-c3cc4c(-c5cnn([C@H]6CC[C@H](O)CC6)c5)cnc(N)c4o3)c21 | 1000 to 10000 nM
* Nc1ncc(-c2cnn(C3CCN(C(=O)C4CC4)CC3)c2)c2cc(-c3cccc4cnccc34)oc12 | 100 to 1000 nM
* CC(C)N1CCC(n2cc(-c3cnc(N)c4oc(-c5cccc6cnccc56)cc34)cn2)CC1 | 100 to 1000 nM
* CC(=O)N1CCC(n2cc(-c3cnc(N)c4oc(-c5ccccc5C(F)(F)F)cc34)cn2)CC1 | > 10000 nM
* Nc1ncc(-c2cnn(C3CCN(C(=O)C4CCC4)CC3)c2)c2cc(-c3cccc4cnccc34)oc12 | 100 to 1000 nM
* Nc1ncc(-c2cnn(C3CCNCC3)c2)c2cc(-c3cccc(OC(F)(F)F)c3)oc12 | > 10000 nM
* CNc1ncc(-c2cnn(C3CCN(C(C)=O)CC3)c2)c2cc(-c3cccc4cnsc34)oc12 [Example 279, trifluoroacetate] | 100 to 1000 nM
* Nc1ncc(-c2cnn(C3CCNCC3)c2)c2cc(-c3ccc4[nH]c(=O)[nH]c4c3)oc12 | 1000 to 10000 nM
* CC(=O)N1CCC(n2cc(-c3cnc(N)c4oc(-c5ccc(COc6cccc7ccccc67)cc5)cc34)cn2)CC1 | > 10000 nM
* CC(=O)N1CCC(n2cc(-c3cnc(N)c4oc(-c5cccc(OC(C)C)c5)cc34)cn2)CC1 | 1000 to 10000 nM
* Nc1ncc(-c2cnn(C3CCNCC3)c2)c2cc(-c3cccc4cc[nH]c34)oc12 | 100 to 1000 nM
* CC(=O)N1CCC(n2cc(-c3cnc(N)c4oc(-c5ccc6c(c5)OCCO6)cc34)cn2)CC1 | 100 to 1000 nM
* Nc1ncc(-c2cnn(C3CC=CC3)c2)c2cc(-c3cccc4cnccc34)oc12 | 100 to 1000 nM
* Nc1ncc(-c2cnn(C3CCNCC3)c2)c2cc(C3=CCNCC3)oc12 [Example 49, dihydrochloride] | 1000 to 10000 nM
* CC(=O)N1CCC(n2cc(-c3cnc(N)c4oc(-c5ccc6c(c5)CCO6)cc34)cn2)CC1 | 100 to 1000 nM
* C[C@]1(O)CC[C@H](n2cc(-c3cnc(N)c4oc(-c5cccc6cnccc56)cc34)cn2)CC1 | 100 to 1000 nM
* Cc1c(-c2ccc3[nH]ncc3c2)oc2c(N)ncc(-c3cnn(C4CCNCC4)c3)c12 [Example 11, hydrochloride] | 1000 to 10000 nM
* CC(=O)N1CCC(n2cc(-c3cnc(N)c4oc(-c5csc6ccccc56)cc34)cn2)CC1 | 100 to 1000 nM
